molecular target: Short transient receptor potential channel 4 (Mus musculus) (UniProt Q9QUQ5); test: blockers of DAMGO-evoked TRPC4 calcium flux – cell-based, Fluo4, HEK293 TRPC4beta/mu-opioid, confirmation (AID 2636); details: at 10 µM
Sequence (Q9QUQ5 whole entry, looked up): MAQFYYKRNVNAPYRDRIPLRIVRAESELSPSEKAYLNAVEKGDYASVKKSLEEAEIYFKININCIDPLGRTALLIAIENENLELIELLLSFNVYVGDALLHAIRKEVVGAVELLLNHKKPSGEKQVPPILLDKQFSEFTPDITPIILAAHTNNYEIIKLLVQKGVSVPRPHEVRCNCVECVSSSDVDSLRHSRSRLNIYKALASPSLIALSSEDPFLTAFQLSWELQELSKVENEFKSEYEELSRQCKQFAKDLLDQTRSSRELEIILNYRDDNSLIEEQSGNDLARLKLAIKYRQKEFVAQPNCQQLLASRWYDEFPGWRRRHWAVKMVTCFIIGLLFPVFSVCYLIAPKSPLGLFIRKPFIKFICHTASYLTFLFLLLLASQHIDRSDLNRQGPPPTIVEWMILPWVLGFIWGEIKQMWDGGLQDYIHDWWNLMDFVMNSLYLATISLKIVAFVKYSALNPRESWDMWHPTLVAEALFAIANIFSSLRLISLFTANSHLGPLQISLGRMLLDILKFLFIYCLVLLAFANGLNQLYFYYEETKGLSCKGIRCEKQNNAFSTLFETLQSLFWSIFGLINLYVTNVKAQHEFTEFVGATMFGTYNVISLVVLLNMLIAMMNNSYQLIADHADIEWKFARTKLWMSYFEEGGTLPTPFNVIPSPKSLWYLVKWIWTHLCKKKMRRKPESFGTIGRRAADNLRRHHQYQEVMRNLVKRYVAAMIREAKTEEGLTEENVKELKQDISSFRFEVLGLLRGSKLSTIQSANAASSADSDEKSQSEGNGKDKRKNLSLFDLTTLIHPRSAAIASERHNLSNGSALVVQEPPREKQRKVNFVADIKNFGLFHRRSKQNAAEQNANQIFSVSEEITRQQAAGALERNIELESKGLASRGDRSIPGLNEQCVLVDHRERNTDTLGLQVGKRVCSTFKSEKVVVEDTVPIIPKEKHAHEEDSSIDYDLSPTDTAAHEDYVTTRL
The source made the active and inactive calls.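 How the source made its calls: active means calcium signal cut by more than 3 SD below the full-agonist control yet still positive, in both repeats and the earlier primary screen; inactive means the rest.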
Outcome (select one): True = active, False = inactive

Prompt: Record lookup: outcome of this test for Clc1ccc(COc2ccccc2CNCc2cccnc2)cc1 ?
Completion: True

Prompt: Same thing, different molecule: CN(C)CCCN(C(=O)c1ccc(S(=O)(=O)N2CCc3ccccc3C2)cc1)c1nc2ccc(F)cc2s1
Completion: False

Prompt: Same thing, different molecule: Cc1ccc(C[n+]2cc(-c3ccc(Cl)cc3)n3c2CCC3)cc1
Completion: True

Prompt: Same thing, different molecule: COc1ccc(C(CNCC(O)COc2c(C)ccc(C)c2C)N(C)C)cc1 (stereo not given)
Completion: False

Prompt: Same thing, different molecule: COc1ccc(-n2c3c(cc(C(=O)NNc4ccccc4)c2=O)C(=O)CC(C)(C)C3)cc1
Completion: False

* * *

molecular target: Short transient receptor potential channel 4 (Mus musculus) (UniProt Q9QUQ5); test: calcium flux activators in TRPC4/5HT1a cells, counter-screen for TRPC4 activator project, cell-based, second counter screen, HEK293 TRPC4/5HT1a, Fluo-4 (AID 434977); conditions: Fluo-4 calcium flux, at 10 µM
Calls of active or inactive are those of the source.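 Rule for the calls: active = calcium signal rise above buffer-control mean plus 5 SD in both duplicates, and also a hit in the primary screen; inactive = the rest.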
Outcome (select one): 1 (active), -1 (inactive)

Prompt: Record lookup: outcome of this test for Cc1ccc(-c2nnc(N3CCC(C)CC3)c3ccccc23)cc1C ?
Completion: -1

Prompt: Same thing, different molecule: Cc1cc(N/N=C/c2ccccc2F)c2ccccc2n1
Completion: -1

Prompt: Same thing, different molecule: C1CCN(c2nc(N3CCCCC3)nc(N3CCNCC3)n2)CC1
Completion: -1

Prompt: Same thing, different molecule: O=S(=O)(NCC1NCCc2ccccc21)c1ccccc1 (stereo not given)
Completion: -1

Prompt: Same thing, different molecule: Cc1ccccc1-n1c(=O)c2c(n3cnnc13)-c1ccccc1CC21CCCCC1
Completion: -1

Prompt: Same thing, different molecule: COc1cc(OC)cc(C(=O)NC(=S)NNC(=O)Cc2cccs2)c1
Completion: 1

Prompt: Same thing, different molecule: CC(=O)C1=C(O)C(=O)N(Cc2ccco2)C1c1ccc2c(c1)OCO2 (stereo not given)
Completion: -1

Prompt: Same thing, different molecule: CCOc1ccc2[nH]c3c(N4CCN(c5ccccn5)CC4)ncnc3c2c1
Completion: -1

Prompt: Same thing, different molecule: CC(C)c1c(O)nc(SCCN(C)C)[nH]c1=O
Completion: -1

Prompt: Same thing, different molecule: CCc1ccc2nc(N=C(N)N)nc(C)c2c1
Completion: -1

* * *

molecular target: Short transient receptor potential channel 4 (Mus musculus) (UniProt Q9QUQ5); assay: blockers of DAMGO-evoked TRPC4 calcium flux – cell-based, Fluo4, HEK293 TRPC4beta/mu-opioid, confirmation (AID 2636); conditions: at 10 µM
The source made the active and inactive calls.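 How the source made its calls: active means calcium signal cut by more than 3 SD below the full-agonist control yet still positive, in both repeats and the earlier primary screen; inactive means the rest.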
Outcome (select one): 1 = active, 0 = inactive

Prompt: Record lookup: outcome of this test for O=C(Nc1ccnn1C1CCN(CCCC2CCCC2)CC1)c1ccccc1Cl ?
Completion: 1

Prompt: Same thing, different compound: Cc1cccc(C(=O)NC(=S)NNC(=O)Cc2ccccc2)c1
Completion: 0

Prompt: Same thing, different compound: Cc1ccccc1CN1CCCC(C(=O)Nc2ccccc2Oc2cccnc2)C1 (centres undefined)
Completion: 1

Prompt: Same thing, different compound: CN(C)CCCN(C(=O)c1ccc(S(=O)(=O)N2CCc3ccccc32)cc1)c1nc2ccc(F)cc2s1
Completion: 0

Prompt: Same thing, different compound: c1ccc2c(c1)[nH]c1c(N3CCCC3)ncnc12
Completion: 0

Prompt: Same thing, different compound: c1ccc(Nc2nc(N3CCCCC3)nc(N3CCNCC3)n2)cc1
Completion: 0

Prompt: Same thing, different compound: COc1ccc2c(c1)C=C(CN1CCC(CO)(CCc3ccccc3)CC1)CO2
Completion: 1

Prompt: Same thing, different compound: Cc1ccc2nc(C)c3c(c2c1)N(c1ccc(F)cc1)CC3
Completion: 1

Prompt: Same thing, different compound: COC(=O)c1c(NC(=O)CSc2ncn[nH]2)sc(C)c1C
Completion: 1

Prompt: Same thing, different compound: CC1(C(=O)OCc2cc(=O)n3cc(Br)ccc3n2)CC1(Cl)Cl (centres undefined)
Completion: 0

Prompt: Same thing, different compound: CC12CN3CC(C)(CN(C1)C3c1ccc(Cl)cc1Cl)C2O (centres undefined)
Completion: 0

Prompt: Same thing, different compound: Cc1ccccc1Cn1c(=N)n(CC(O)c2ccco2)c2ccccc21 (centres undefined)
Completion: 1

Prompt: Same thing, different compound: CCOC(=O)C1(CCc2ccccc2)CCN(Cc2ccccn2)CC1
Completion: 1

Prompt: Same thing, different compound: Cc1cc(C(C)(C)C)cc(S(=O)(=O)Nc2cccc(C(=O)O)c2)c1C
Completion: 0
